GI50 overview
Test system: RPMI-8226
protocolNotes: NCI 60 antitumor screening (single dose / five doses)
Format: cell-based
conditionParameters: Homo sapiens; RPMI-8226, five doses (0.01–100 μM); read-out: GI50
observable: GI50 (µM)

- molSmiles: "Clc1cccc(/C=N/Nc2nc(N/N=C/c3cccc(Cl)c3)nc(N3CCOCC3)n2)c1"
  targetEntity: "RPMI-8226"
  observable: "GI50"
  resultUnit: "µM"
  valueObserved: 1.9
- molSmiles: "Brc1cccc(/C=N/Nc2nc(N/N=C/c3cccc(Br)c3)nc(N3CCOCC3)n2)c1"
  targetEntity: "RPMI-8226"
  observable: "GI50"
  resultUnit: "µM"
  valueObserved: 1.68
- molSmiles: "Oc1ccccc1/C=N/Nc1nc(N/N=C/c2ccccc2O)nc(N2CCOCC2)n1"
  targetEntity: "RPMI-8226"
  observable: "GI50"
  resultUnit: "µM"
  valueObserved: 2.78
- molSmiles: "Fc1cccc(Cl)c1/C=N/Nc1nc(N/N=C/c2c(F)cccc2Cl)nc(N2CCCCC2)n1"
  targetEntity: "RPMI-8226"
  observable: "GI50"
  resultUnit: "µM"
  valueObserved: 2.26
- molSmiles: "CN(C)c1ccc(/C=N/Nc2nc(N/N=C/c3ccc(N(C)C)cc3)nc(N3CCCCC3)n2)cc1"
  targetEntity: "RPMI-8226"
  observable: "GI50"
  resultUnit: "µM"
  valueObserved: 1.92
